- ASSAYED TARGET: Gamma-secretase
- EXPERIMENT NOTES: Inhibition of Gamma-secretase
pIC50: −log10 of the molar value.
PARAMETER MEASURED: pIC50

- COMPOUND: "O=C(NCc1ccncc1)OCC1CCc2ccccc2N1S(=O)(=O)c1ccc(Cl)cc1 (stereo not drawn)"
  pIC50: 5.78
- COMPOUND: "O=C(OCC1CCc2c(F)ccc(F)c2N1S(=O)(=O)c1ccc(Cl)cc1)N1CCC(N2CCCCC2)CC1 (stereo not drawn)"
  pIC50: 6.66
- COMPOUND: "CCN(Cc1ccncc1)C(=O)OCC1CCc2ccccc2N1S(=O)(=O)c1ccc(Cl)cc1 (stereo not drawn)"
  pIC50: 7.06
- COMPOUND: "O=C(OCC1CCc2ccc(F)cc2N1S(=O)(=O)c1ccc(Cl)cc1)N1CCC(N2CCCCC2)CC1 (stereo not drawn)"
  pIC50: 7.25
- COMPOUND: "O=C(OCC1CCc2ccccc2N1S(=O)(=O)c1ccc(Cl)cc1)N1CCC(N2CCCCC2)CC1 (stereo in doubt; 26)"
  pIC50: 7.14

[I] CN(C)C1CCN(C(=O)OCC2CCc3ccccc3N2S(=O)(=O)c2ccc(Cl)cc2)CC1 (stereo not drawn)
[II] O=C(NCCCN1CCCC1)OCC1CCc2ccccc2N1S(=O)(=O)c1ccc(Cl)cc1 (stereo not drawn)
For I and II , which recorded pIC50 is lower? Mark your selection by writing its label.
I
(I: 6.20, II: 6.40)
